Record form. Attribute: melting point. Fill in for each entry.

Query: melting point; subject: CN(Cc1ccc(NC(=O)C2=Cc3cc(-c4ccc(O)cc4)ccc3S(=O)(=O)CC2)cc1)C1CCOCC1
232 to 234 °C

One more compound: CCC(C)(C)c1ccc(OCCCCc2c(O)cc3ccccc3c2C(N)=O)c(C(C)(C)CC)c1
118 to 124 °C

One more compound: C[Si](C)(C)c1cccc2c1S(=O)c1c(cccc1[Si](C)(C)C)S2
210 to 211 °C

One more compound: Cc1c(Cl)sc2c1c(-c1ccccc1)nc(=O)n2C
190 to 192 °C

One more compound: COc1ccc(CNc2nc(Cl)ccc2C=O)cc1Cl
134 to 138 °C

* * *

Record form. Attribute: melting point. Fill in for each entry.

Query: melting point; subject: NCCNc1n[nH]c2ncnc(Nc3cccc(Cl)c3)c12
200 °C

One more compound: CCCCC(=O)OC(C)OC(=O)NC1(C(=O)O)CC1 (stereo unspecified)
148 to 151 °C

One more compound: COc1ccnc(N2CCC3(CCCN(Cc4c[nH]c5ccccc45)C3=O)CC2)n1
190 to 191 °C

One more compound: CCOC(=O)COc1ccc2c(C)c(CCN(CC)CC)c(=O)oc2c1Cl
147 to 148 °C

One more compound: Cc1cccc(C)c1C(=O)OCC(N)=O
106 to 108 °C

One more compound: CCN(CC(=O)O)c1ccc(C=O)cc1[N+](=O)[O-]
90 °C

* * *

measurement name: melting point

Query: melting point; subject: CCOC(=O)C1=C(C)Nc2c(c(C)nn2C)C1c1ccccc1[N+](=O)[O-] (stereo not given)
194 to 198 °C

One more molecule: CCN(CC)c1nsc(NC(=O)NC)c1C#N
182 to 183 °C

One more molecule: O=C(O)Cc1c(C(=O)c2cccc(-c3ccco3)c2)[nH]c2cc(Cl)ccc12
246 to 249 °C

One more molecule: [N-]=[N+]=NCCCCCCC(N)=O
62 °C

One more molecule: COC(=O)c1ccc(Cc2c(Cl)n(C)c3cc(Cl)c(CCNC(=O)N(C)C)cc23)c(OC)c1
186 to 189 °C

One more molecule: CC(C)c1cccc(C(C)C)c1NC(=O)CSCC(=O)O
168 to 169 °C

One more molecule: CCC(=O)c1cc(C(=O)OC)c(N)cc1C(F)(F)F
141 to 144 °C

One more molecule: C=NOCc1ccc(CCc2csc(NC(C)=O)n2)cc1
136 to 137 °C

One more molecule: O=Cc1c([N+](=O)[O-])ccc(Cl)c1[N+](=O)[O-]
101 to 102 °C

One more molecule: CC(=O)OCC1OC(n2c(Br)c(C=O)c3cc(Cl)c(Cl)cc32)C(O)C1O (stereo not given)
159 to 160 °C

One more molecule: N#Cc1ccc(-c2ccno2)cc1
148 to 149 °C

One more molecule: CN(C)c1cccc2c(S(=O)(=O)NCCCCn3cnc4c(N)nc5ccccc5c43)cccc12
200 to 201 °C

One more molecule: CNC(=S)n1nc(-c2ccc(Cl)c3ccccc23)nc1N
270 to 272 °C

One more molecule: CONC(=O)[C@@H](Cc1ccccc1)NC(=O)OC
154 to 155 °C

One more molecule: CCOP(=O)(/C=C\c1cnc(-c2ccccc2)nc1OCc1ccc(OCc2nc(-c3ccco3)oc2C)c(OC)c1)OCC
103 to 104 °C

One more molecule: CCCCOCCOc1ccc(-c2ccc(N(C)Cc3cnn(C)c3)c(C=C(C)C(=O)O)c2)cc1
140 °C

One more molecule: CN1CCC(c2c(O)cc(O)c3c(=O)cc(-c4ccccc4Cl)oc23)C1CC#N (stereo not given)
107 to 108 °C

One more molecule: CNc1nc(C2C(=O)Nc3ccccc32)c2cn(C3CCCC3)nc2n1 (stereo not given)
> 300 °C

One more molecule: Cc1cc(C=C2SC(=S)NC2=O)cc(C(C)(C)C)c1O
210 to 216 °C

One more molecule: COc1ccc(C=C(c2ccc(OCc3ccccc3)cc2)N(C)C)cc1
60 °C

One more molecule: Nc1c(F)c(F)c(OC(F)F)c2c1c(=O)c(C(=O)O)cn2C1CC1
284 to 286 °C

One more molecule: O=C(O)CCCc1cc2nc(C(F)(F)F)ccc2n1S(=O)(=O)c1ccc2c(c1)OCCO2
158 °C

One more molecule: O=C(Oc1c(F)c(F)c(F)c(F)c1F)[C@H]1CCC(=O)N1C(=O)OCc1ccccc1
81 to 82 °C

One more molecule: N#Cc1ccc(C(=O)N2CCC3(CC2)OCCO3)cn1
133 to 135 °C

One more molecule: CCOC(=O)c1cc(-n2c(=O)[nH]c3c(c2=O)CSC3)ccc1Cl
194 to 196 °C

One more molecule: CCOc1cc2ncc(C#N)c(Nc3ccc(Sc4ccccc4)c(Cl)c3)c2cc1OCC
88 to 94 °C

One more molecule: COc1cc2c(cc1OC)CC(N(C)CCCN1CCc3cc(OC)c(OC)cc3C(O)C1=O)CC2 (stereo not given)
141 to 143 °C

One more molecule: Cc1ccc(N2CCN(Cc3ccc4c(c3)NC(=O)CO4)CC2)cc1
209 to 212 °C

One more molecule: NC(=S)Nc1ccccc1O
161 °C

One more molecule: O=C1c2cc([N+](=O)[O-])ccc2SC12CC2
126 to 128 °C

One more molecule: CCCCCN1C(=O)C2(COc3ccc(-c4cncnc4)cc32)c2ccccc21 (stereo not given)
115 to 117 °C

One more molecule: CCN1CCN(c2cccc3c2C[C@H](NC(C)=O)CC3)CC1
142 to 143 °C

One more molecule: CC(=O)N1CCC(C2=C(C#N)C(c3cccc4nonc34)c3c[nH]nc3N2)CC1 (stereo not given)
248 °C

One more molecule: CCCCOc1cccn2c(=O)cc(C)nc12
93 to 94 °C

One more molecule: CCCCNc1c([N+](=O)[O-])cc(C)cc1[N+](=O)[O-]
52 °C

One more molecule: CCc1cc(NC(=O)N2CCC(C(=O)O)(c3ccccc3)CC2)c(OC)nc1C
173 to 174 °C

One more molecule: COc1ccc(Cn2c(=O)c(C(=O)NC3CCCCC3)c(O)c3cccnc32)cc1
149 °C

One more molecule: CCCCCCCCCCOc1ccc(C(=O)Oc2ccc(OC(=O)[C@@H]3O[C@@H]3CCC)cc2)cc1Cl
66.4 °C

One more molecule: OCc1nc2cc(CN3CCN(C(c4ccccc4)c4ccccc4)CC3)ccc2[nH]1
137 °C

One more molecule: COc1ccc(N2CCN(C(=S)C3(C)CCc4c(C)c(O)c(C)c(C)c4O3)CC2)cc1 (stereo not given)
120 to 121 °C

* * *

Record form. Attribute: melting point. Fill in for each entry.

Query: melting point; subject: CC(=O)C1CCC2C3CCC4CC(OC(=O)C(Cl)(Cl)Cl)CCC4(C)C3C(=O)CC12C (stereo not given)
126 to 127 °C

One more molecule: CN1Cc2cccc3c2c(cn3C)S1(=O)=O
190 °C

One more molecule: CC(=O)Nc1ccc(NCCSC#N)c([N+](=O)[O-])c1
168 °C

One more molecule: O=C(Nc1ccc2c(c1)OCO2)O[C@@H]1CN=C(c2ccccc2)O[C@H]1c1ccccc1 (racemic)
138 °C

One more molecule: COc1ncncc1NS(=O)(=O)c1cccc(Cl)c1Cl
204 to 211 °C

One more molecule: COc1cccc2c(=O)c3cccc(OC)c3sc12
248 to 250 °C

One more molecule: COc1ccc(C(F)(F)C(F)(F)F)cc1-c1csc(N)n1
125 °C

One more molecule: CC(C)CC(NC(=O)OCc1ccccc1)C(=O)NC(Cc1cccc2ccccc12)C(=O)CSCc1ccco1 (stereo not given)
71 to 74 °C

One more molecule: COCCNC(=O)c1cc(F)cc(-c2cccc3cc(Cc4cccc(C(F)(F)F)c4)sc23)c1
103 to 104 °C

One more molecule: COc1cc2c(cc1O)C(C)(C)CC2
43.5 to 44.5 °C

* * *

Record form. Attribute: melting point. Fill in for each entry.

Query: melting point; subject: Cc1ccccc1NC(=O)c1ccccc1C(c1ccc(O)cc1)c1ccc(O)cc1
267 to 269 °C

One more molecule: Cc1nnc2n1-c1sc(CCc3ccc(-c4ccccc4)cc3)cc1C(c1ccccc1Cl)=NC2
163 to 165 °C

One more molecule: COc1ccc(CCNC(=O)C(F)(F)F)cc1NC(C)=O
105 to 106 °C

One more molecule: CC(C)C1(C)N=C(c2ncc(O)cc2C(=O)O)NC1=O (stereo not given)
255 to 257 °C

One more molecule: COC(=O)Nc1nc2cnc3cccnc3c2n1CC(C)C
195 to 197 °C
